Subject of test: human ether-à-go-go-related gene (hERG) potassium channel (human)
Sequence (Q12809 whole entry, looked up): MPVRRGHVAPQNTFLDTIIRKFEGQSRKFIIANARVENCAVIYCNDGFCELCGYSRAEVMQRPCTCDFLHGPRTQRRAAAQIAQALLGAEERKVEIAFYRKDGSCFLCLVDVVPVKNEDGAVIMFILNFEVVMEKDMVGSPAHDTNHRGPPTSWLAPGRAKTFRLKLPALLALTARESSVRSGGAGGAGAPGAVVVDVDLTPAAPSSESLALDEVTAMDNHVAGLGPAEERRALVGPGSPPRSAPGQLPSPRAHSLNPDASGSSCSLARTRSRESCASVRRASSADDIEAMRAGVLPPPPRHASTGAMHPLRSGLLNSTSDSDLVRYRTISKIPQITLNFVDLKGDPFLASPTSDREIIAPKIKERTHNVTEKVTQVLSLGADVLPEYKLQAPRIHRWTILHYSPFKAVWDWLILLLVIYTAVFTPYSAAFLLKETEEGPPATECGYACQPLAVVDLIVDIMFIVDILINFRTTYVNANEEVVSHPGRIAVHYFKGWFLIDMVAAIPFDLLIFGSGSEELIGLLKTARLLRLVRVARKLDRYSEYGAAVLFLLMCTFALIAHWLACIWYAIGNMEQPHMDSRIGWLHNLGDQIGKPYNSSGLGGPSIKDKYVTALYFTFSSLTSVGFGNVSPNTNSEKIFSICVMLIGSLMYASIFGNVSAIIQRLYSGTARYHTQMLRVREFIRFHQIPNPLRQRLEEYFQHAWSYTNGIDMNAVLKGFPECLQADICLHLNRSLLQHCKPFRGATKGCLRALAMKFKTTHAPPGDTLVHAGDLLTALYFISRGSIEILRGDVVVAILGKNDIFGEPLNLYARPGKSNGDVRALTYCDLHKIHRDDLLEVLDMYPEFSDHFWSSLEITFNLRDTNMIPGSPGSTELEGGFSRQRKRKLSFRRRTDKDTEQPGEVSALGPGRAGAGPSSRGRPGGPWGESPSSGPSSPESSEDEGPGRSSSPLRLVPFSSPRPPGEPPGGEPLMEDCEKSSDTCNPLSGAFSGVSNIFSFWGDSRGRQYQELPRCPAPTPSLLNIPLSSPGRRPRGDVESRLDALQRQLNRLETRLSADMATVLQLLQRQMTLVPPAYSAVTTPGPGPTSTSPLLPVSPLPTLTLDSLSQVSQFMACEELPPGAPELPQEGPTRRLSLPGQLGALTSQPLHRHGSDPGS
Assay comment: primary screen, population patch clamp on CHO cells stably expressing hERG; higher = less effect of the substance;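 also: peak tail current of the secondary pulse compared with the same well before compound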
Screen size: about 310,000 compounds; about 14,000 (4.5%) showed an effect of 50% or more. The effect is printed as a negative number. For the sample, strong results were picked, then their nearest neighbours and some compounds at random.
Response key: met means hERG current change (%, negative = inhibition) at 10uM >= -10%; not met means hERG current change (%, negative = inhibition) at 10uM < -10%.

Some solved cases for reference:
[[record]]
compound_structure_string = "CCN(C(=O)COC(=O)CNC(=O)c1ccc(C)s1)c1ccccc1"
category = "met"

[[record]]
compound_structure_string = "O=[N+]([O-])c1ccc(CSc2nc3ncc(Br)cc3[nH]2)cc1"
category = "met"

[[record]]
compound_structure_string = "COc1ccccc1NC(=O)Cn1c([N+](=O)[O-])cnc1C"
category = "met"


// query Determine whether measured hERG current change (%, negative = inhibition) at 10uM meets or exceeds -10% for CCN(CC)c1ccc(CN2CCC(C(=O)NCc3ccc(C)cc3)CC2)cc1.O=C(O)C(=O)O
// result not met

// query Determine whether measured hERG current change (%, negative = inhibition) at 10uM meets or exceeds -10% for Cc1ccc(CNC(=O)C2CCN(S(=O)(=O)N3CCCCC3)CC2)cc1
// result not met

====

Subject of test: human ether-à-go-go-related gene (hERG) potassium channel (human)
Assay comment: primary screen, population patch clamp on CHO cells stably expressing hERG; higher = less effect of the substance
The whole screen tested about 310,000 compounds, of which about 14,000 (4.5%) showed an effect of 50% or more. Effects have a minus sign here. The entries come from a sample that favours strong results as a whole.
Test readout: hERG current change (%, negative = inhibition) at 10uM (%)
Numbers only, in %.

The cases that follow already have their hERG current change (%, negative = inhibition) at 10uM on record.
[[record]]
compound = "Cc1ccc(C(=O)NC2CCN(Cc3ccccc3)CC2)cc1S(=O)(=O)N1CCOCC1"
value_reported = -30.2

[[record]]
compound = "COC(=O)C(C)N(c1ccc(C)cc1)S(=O)(=O)c1c(C)[nH]c(=O)[nH]c1=O (centres unmarked)"
value_reported = 1.72

[[record]]
compound = "CCN(CC)S(=O)(=O)c1ccc2c(c1)N(CC(=O)NCCc1ccc(S(N)(=O)=O)cc1)C(=O)CO2"
value_reported = -1.7

[[record]]
compound = "Br.C1=C(c2ccco2)N2CCN=C2S1"
value_reported = 1.91

[[record]]
compound = "Cn1c(=O)c2c([nH]c(=S)n2CCCc2ccccc2)n(C)c1=O"
value_reported = 15.5

[[record]]
compound = "CCCCN(CCCC)CCNC(=O)CN1C(=O)COc2ccc(S(=O)(=O)N3CCC(C)CC3)cc21"
value_reported = -66.5

[[record]]
compound = "COc1ccc(-c2cc(C(F)(F)F)n3ncc(C(=O)N(C)Cc4ccccc4)c3n2)cc1"
value_reported = -17

[[record]]
compound = "Cc1cc(NC(=O)CSCc2ccc([N+](=O)[O-])cc2)no1"
value_reported = -1.21

[[record]]
compound = "CC1CCN(S(=O)(=O)c2ccc3c(c2)N(CC(=O)NCCCN2C(C)CCCC2C)C(=O)CO3)CC1 (centres unmarked)"
value_reported = 17.3

[[record]]
compound = "CCN(CC)S(=O)(=O)c1ccc(S(=O)(=O)N2CCC(C(=O)NC3CCN(Cc4ccccc4)CC3)CC2)cc1"
value_reported = 14.8


Below are some compounds; for each one, tell me its hERG current change (%, negative = inhibition) at 10uM.
1. CCOC(=O)Cc1cc(=O)n2[nH]c(-c3ccc(Cl)cc3)cc2n1
2. CCCNC(=O)C1CCN(S(=O)(=O)c2cccc3nonc23)CC1

// result
[-20.4, -3.97]

Below are some compounds; for each one, tell me its hERG current change (%, negative = inhibition) at 10uM.
1. CCCCN(CCCC)CCNC(=O)CN1C(=O)COc2ccc(S(=O)(=O)N3CCOCC3)cc21
2. COc1cccc(CCNCc2c(F)cccc2F)c1.O=C(O)C(=O)O
3. COc1cccc(CNCCc2ccc(F)cc2)c1.O=C(O)C(=O)O

// result
-42.3
-15.1
-9.82

Below are some compounds; for each one, tell me its hERG current change (%, negative = inhibition) at 10uM.
1. COc1ccc(CCNCc2ccc(OCc3ccccc3)cc2)cc1
2. Cc1ccc(Cl)cc1S(=O)(=O)N1CCC(C(=O)NC2CCN(Cc3ccccc3)CC2)CC1
3. CCc1ccc(NC(=O)CCNS(=O)(=O)c2cccc3nsnc23)cc1
4. Cn1c(=O)c2c(nc(SCC(=O)NCC3CCCO3)n2C)n(C)c1=O (centres unmarked)

// result
1: -41.6; 2: -71.5; 3: -14.9; 4: 2.28

GET /value?item= COc1ccc(-c2cn[nH]c2-c2ccc(OCC(=O)NN)cc2O)cc1 &field=hERG current change (%, negative = inhibition) at 10uM returns 17.4

====

Subject of test: human ether-à-go-go-related gene (hERG) potassium channel (human)
Assay comment: primary screen, population patch clamp on CHO cells stably expressing hERG; higher = less effect of the substance
The campaign covered roughly 310,000 compounds. About 14,000 (4.5%) showed an effect of 50% or more. Effects have a minus sign here. Many of the other results were omitted from the sample, so strong results are more common in it than they were.
Response key: Met means hERG current change (%, negative = inhibition) at 10uM >= -40%; Not met means hERG current change (%, negative = inhibition) at 10uM < -40%.

// query Determine whether measured hERG current change (%, negative = inhibition) at 10uM meets or exceeds -40% for CCN(CC)CCn1c(=N)n(CC(O)c2ccc(OC)c(OC)c2)c2ccccc21.Cl (stereo not drawn)
// result Met

// query Determine whether measured hERG current change (%, negative = inhibition) at 10uM meets or exceeds -40% for N=C1/C(=C/c2coc3ccccc3c2=O)C(=O)N=C2SC(c3ccco3)=NN12
// result Met

// query Determine whether measured hERG current change (%, negative = inhibition) at 10uM meets or exceeds -40% for Cc1ccc(C(=O)OCC(=O)NNC(=O)COc2ccc(Cl)cc2)c(O)c1
// result Met

// query Determine whether measured hERG current change (%, negative = inhibition) at 10uM meets or exceeds -40% for CC(C)(C)c1ccc(-c2nc(C#N)c(N3CCC(C(N)=O)CC3)o2)cc1
// result Not met

// query Determine whether measured hERG current change (%, negative = inhibition) at 10uM meets or exceeds -40% for CCCCOC(=O)Cn1c(=O)n(CC(=O)OCCCC)c2ccccc21
// result Met

// query Determine whether measured hERG current change (%, negative = inhibition) at 10uM meets or exceeds -40% for COc1ccccc1CN1CCN(Cc2ccc3ccccc3c2)CC1.O=C(O)C(=O)O
// result Met

// query Determine whether measured hERG current change (%, negative = inhibition) at 10uM meets or exceeds -40% for COc1ccccc1N1CCN(Cc2cccc(Br)c2)CC1.O=C(O)C(=O)O
// result Met

====

Subject of test: human ether-à-go-go-related gene (hERG) potassium channel (human)
Assay comment: primary screen, population patch clamp on CHO cells stably expressing hERG; higher = less effect of the substance
About 14,000 (4.5%) of roughly 310,000 compounds showed an effect of 50% or more. Effects have a minus sign here. The sample as a whole holds a higher share of strong results than the screen did.
Response key: t means hERG current change (%, negative = inhibition) at 10uM >= -30%; f means hERG current change (%, negative = inhibition) at 10uM < -30%.

Some solved cases for reference:
[[record]]
compound = "CCc1ccc(NC(=O)CN2CCCN(S(=O)(=O)c3ccc(F)cc3)CC2)cc1"
subject_of_test = "human ether-à-go-go-related gene (hERG) potassium channel (human)"
category = "f"

[[record]]
compound = "O=C(CCC(=O)N1CCN(S(=O)(=O)c2ccc(Cl)cc2)CC1)NC1CCCc2ccccc21 (stereo not drawn)"
subject_of_test = "human ether-à-go-go-related gene (hERG) potassium channel (human)"
category = "f"

[[record]]
compound = "COc1ccc(S(=O)(=O)N2CCN(CC(=O)Nc3ccc(F)c(F)c3)CC2)cc1"
subject_of_test = "human ether-à-go-go-related gene (hERG) potassium channel (human)"
category = "f"

[[record]]
compound = "COc1ccc(NC(=O)CN2CCCN(S(=O)(=O)c3ccc(F)cc3)CC2)cc1"
subject_of_test = "human ether-à-go-go-related gene (hERG) potassium channel (human)"
category = "f"

[[record]]
compound = "Cc1ccc(S(=O)(=O)N2CCN(C(=O)CCC(=O)NC3CCCc4ccccc43)CC2)cc1 (stereo not drawn)"
subject_of_test = "human ether-à-go-go-related gene (hERG) potassium channel (human)"
category = "t"

[[record]]
compound = "COc1ccc(NC(=O)CN2CCN(S(=O)(=O)c3ccc(Cl)cc3)CC2)cc1Cl"
subject_of_test = "human ether-à-go-go-related gene (hERG) potassium channel (human)"
category = "t"

[[record]]
compound = "O=C(CN1CCCN(S(=O)(=O)c2ccc(F)cc2)CC1)Nc1c(Cl)cccc1Cl"
subject_of_test = "human ether-à-go-go-related gene (hERG) potassium channel (human)"
category = "t"

[[record]]
compound = "COc1ccc(S(=O)(=O)N2CCN(CC(=O)Nc3cc(OC)cc(OC)c3)CC2)cc1"
subject_of_test = "human ether-à-go-go-related gene (hERG) potassium channel (human)"
category = "t"


Switching to the query record.
// query Determine whether measured hERG current change (%, negative = inhibition) at 10uM meets or exceeds -30% for O=C(CN1CCCN(S(=O)(=O)c2ccc(F)cc2)CC1)Nc1cccc(F)c1
// result f
